Tested target: T1, VEGFR-1-Fc (UniProt P17948 27-338)
T1 construct: domain: first three Ig domains; expressed in Drosophila S2 cells, purified on Protein A sepharose; also called VEGFR-1-Fc fusion protein; not shown: Fc fragment from the Signal-pIgPlus vector
T1 sequence (P17948 27-338): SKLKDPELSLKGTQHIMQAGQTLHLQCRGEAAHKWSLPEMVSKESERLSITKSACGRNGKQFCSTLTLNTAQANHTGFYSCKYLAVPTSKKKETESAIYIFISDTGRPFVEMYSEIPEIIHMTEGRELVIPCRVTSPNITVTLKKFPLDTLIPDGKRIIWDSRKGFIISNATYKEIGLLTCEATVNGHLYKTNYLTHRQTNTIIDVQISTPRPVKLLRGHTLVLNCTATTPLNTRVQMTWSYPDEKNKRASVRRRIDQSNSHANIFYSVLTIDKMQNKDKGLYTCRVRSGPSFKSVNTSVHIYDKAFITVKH
Experimental protocol: receptor-Fc IP
Observable: binding result

1) 72-12 (ligand) GQNHHEVVKSIDNEWRKTQCMPREVCIDVGKEFGVATNTFFKPPCVSVYRCGGCCNSEGLQCMNTSTSYLSKTLFEITVPLSQGPKPVTISFLQHNKCECRPKKD    no binding
2) 41-5 (ligand) AHYNTEILKFMDVYQRSYCHPREVCIDVGKEYPDEIEYIFKPSCVPLMRCGGCCNDEGLECVPTEESNITMQIMRIKPHQGQHIGEMSFANHTSCRCMSKLD    no binding
